Data credit: PubChem BioAssay (NCI)

# Tested on: OVCAR-3 ovarian
# TEST METHOD NOTES: NCI-60 one-dose screen, 48 h (100 = growth as untreated, 0 = no growth, -100 = all killed)
# APPLIED CONDITIONS: 10 µM unless noted
This is part of a sample that, as a whole, favours compounds with a hit. Of some 83,000 tested, about 20% had one in any assay.
The threshold is inclusive: growth of exactly 40% counts as 1 (yes); values below receive 0 (no).

Answered examples (5):
COc1ccc(Cn2nc3c(c2-c2cc(OC)c(OC)c(OC)c2)-c2oncc2CC3)cc1 1 (yes)
COc1ccc(C(=O)c2cc3c(N)c(C(=O)Nc4ccc(Cl)cc4)sc3nc2C)cc1 1 (yes)
COc1ccc(NS(=O)(=O)c2ccc(C)cc2)c([N+](=O)[O-])c1 1 (yes)
CCCCCCCCCCCCCCCCCCOc1ccccc1N 1 (yes)
Cc1nccc2c3ccc(OCc4cn(-c5ccc(Cl)cc5)nn4)cc3n(CCCc3ccccc3)c12 0 (no)

Answer whether growth of `Cc1ccc(-c2c(Br)c(OC(=O)CO[C@@H]3C[C@H](C)CC[C@H]3C(C)C)c(-c3ccc(C)cc3C)c(Br)c2OC(=O)CO[C@H]2C[C@@H](C)CC[C@@H]2C(C)C)c(C)c1` is greater than or equal to 40%.
1 (yes)

Is growth for `CC[C@@]12C=CCN3CC[C@]4(c5cc(NC(=O)COc6cc(OCC(=O)Nc7cc8c(cc7OC)N(C)[C@H]7[C@@](O)(C(=O)OC)[C@H](OC(C)=O)[C@]9(CC)C=CCN%10CC[C@]87[C@@H]%109)cc7oc(-c8ccccc8)cc(=O)c67)c(OC)cc5N(C)[C@@H]4[C@](O)(C(=O)OC)[C@H]1OC(C)=O)[C@H]32` at or above 40%?
0 (no)

Please check the record `COc1ccc(-n2cc(-c3cc(OC)c(OC)c(OC)c3)n(C(C)=O)c2=O)cc1` and state if its growth is at or above 40%.
1 (yes)
